# STUDY SYSTEM: His6-ScoC (Bacillus subtilis) (UniProt P11065)
# Sequence: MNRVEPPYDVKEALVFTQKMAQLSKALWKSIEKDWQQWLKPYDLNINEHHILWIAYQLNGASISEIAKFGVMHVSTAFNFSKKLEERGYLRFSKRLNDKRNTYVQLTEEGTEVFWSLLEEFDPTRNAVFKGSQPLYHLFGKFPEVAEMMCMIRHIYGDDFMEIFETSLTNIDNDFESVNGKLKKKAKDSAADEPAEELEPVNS
# MEASUREMENT PROTOCOL: EMSA
# CONDITION LABEL: CodY assays with 10 mM ILV (plus 2 mM GTP in Fig 2 footprints); Kd = protein monomer concentration shifting 50% of DNA; buffer, salt, pH and temperature not …
MEASURE: pKd
A value of pKd is the negative decimal logarithm of a concentration given in moles per litre.

input: What value of pKd has been reported for the following sequence? TCGTTTCGTCATATTATCTGACAATTAATTGACAGAATATTTTAACATAATTATTAGGAGGATT (double strand) [braB64]
output: 6.82

src = paper PMC4608796
